This listing pairs compounds with measured Thrombin kapp.
Biological target: Thrombin (Homo sapiens, UniProt P00734)
Construct: purchased R&D
Test: Kinetic progress curves (kapp, K1, KI*, mechanism)
Format: biochemical
Conditions: apparent second-order rate constant from progress curves; mean ± SD
Lab book: enter the figure in M⁻¹ s⁻¹, no units written.

// solved cases for Thrombin kapp follow
C[C@@H]1NC(=O)N[C@@H]1CCCCCC(=O)NCCOCCOCCOCCn1cc(CCCOC(=O)NC(CCCNC(=N)N)P(=O)(Oc2ccccc2)Oc2ccccc2)nn1 (stereo partly drawn) [45b]	19
C#CCCCOC(=O)NC(Cc1ccc(NC(=N)N)cc1)P(=O)(Oc1ccc(NC(C)=O)cc1)Oc1ccc(NC(C)=O)cc1 (stereo not drawn) [35b]	128
CC(=O)Nc1ccc(OP(=O)(Oc2ccc(NC(C)=O)cc2)C(Cc2ccc(NC(=N)N)cc2)NC(=O)OCCCc2cn(CCOCCOCCOCCNC(=O)CCCCC[C@H]3NC(=O)N[C@H]3C)nn2)cc1 (stereo partly drawn) [52b]	49

Next, consider the following compound.
The recorded Thrombin kapp for C#CCCCOC(=O)NC(Cc1ccc(NC(=N)N)cc1)P(=O)(Oc1ccc(Cl)cc1)Oc1ccc(Cl)cc1 (stereo not drawn) [36b] is 251

----------
Molecular target: TLCK-treated pancreatic bovine chymotrypsin (Bos taurus, UniProt P00766)
Construct: TLCK-treated pancreatic bovine chymotrypsin (Sigma-Aldrich); purchased Sigma-Aldrich; host or cells: bovine pancreas
Test: IC50 determination, spectrophotometric protease assay
Type: biochemical
pIC50: −log10 of the molar value.
endpoint name: pIC50

Known pIC50 results, listed for orientation:
C#CCCCOC(=O)NC(Cc1ccc(NC(=N)N)cc1)P(=O)(Oc1ccc(NC(C)=O)cc1)Oc1ccc(NC(C)=O)cc1 (stereo not drawn) [35b]	< 5.00
C#CCCCOC(=O)NC(CCCNC(=N)N)P(=O)(Oc1ccc(Cl)cc1)Oc1ccc(Cl)cc1 (stereo not drawn) [33b]	< 5.00
C#CCCCOC(=O)NC(Cc1ccccc1)P(=O)(Oc1ccccc1)Oc1ccccc1 (stereo not drawn)	5.81
CC(=O)Nc1ccc(OP(=O)(Oc2ccc(NC(C)=O)cc2)C(Cc2ccc(NC(=N)N)cc2)NC(=O)OCCCc2cn(CCOCCOCCOCCNC(=O)CCCCC[C@H]3NC(=O)N[C@H]3C)nn2)cc1 (stereo partly drawn) [52b]	< 5.00
C#CCCCOC(=O)NC(CCCCN)P(=O)(Oc1ccc(NC(=O)OC)cc1)Oc1ccc(NC(=O)OC)cc1 (stereo not drawn) [30b]	< 5.00
C#CCCCOC(=O)NC(CCCN)P(=O)(Oc1ccccc1)Oc1ccccc1.O=C(O)C(F)(F)F (stereo not drawn) [14b]	< 5.00
C#CCCCOC(=O)NC(C1CCN(C(=N)N)CC1)P(=O)(Oc1ccccc1)Oc1ccccc1 (stereo not drawn) [41b]	< 5.00
C#CCCCOC(=O)NC(Cc1ccc(CN)cc1)P(=O)(Oc1ccccc1)Oc1ccccc1 (stereo not drawn) [22b]	< 5.00
C#CCCCOC(=O)NC(c1ccc(N)cc1)P(=O)(Oc1ccccc1)Oc1ccccc1 (stereo not drawn) [19b]	5.07
C#CCCCOC(=O)NC(C1CCNCC1)P(=O)(Oc1ccccc1)Oc1ccccc1 (stereo not drawn) [23b]	< 5.00

The molecule C[C@@H]1NC(=O)N[C@@H]1CCCCCC(=O)NCCOCCOCCOCCn1cc(CCCOC(=O)NC(Cc2ccc(NC(=N)N)cc2)P(=O)(Oc2ccc(Cl)cc2)Oc2ccc(Cl)cc2)nn1 (stereo partly drawn) [54b] , when measured on TLCK-treated pancreatic bovine chymotrypsin (Bos taurus, UniProt P00766), yielded pIC50 of 5.25

Log: TLCK-treated pancreatic bovine chymotrypsin (Bos taurus, UniProt P00766), molecule C#CCCCOC(=O)NC(CCCNC(=N)N)P(=O)(Oc1ccccc1)Oc1ccccc1 (stereo not drawn) [32b] , pIC50 = < 5.00

Entry C#CCCCOC(=O)NC(C(C)C)P(=O)(Oc1ccccc1)Oc1ccccc1 (stereo not drawn) : pIC50 on TLCK-treated pancreatic bovine chymotrypsin (Bos taurus, UniProt P00766) = < 5.00

TLCK-treated pancreatic bovine chymotrypsin (Bos taurus, UniProt P00766) data for C#CCCCOC(=O)NC(c1ccc(NC(=N)N)cc1)P(=O)(Oc1ccccc1)Oc1ccccc1.O=C(O)C(F)(F)F (stereo not drawn) [37b] ; its pIC50: < 5.00

Observed pIC50 on TLCK-treated pancreatic bovine chymotrypsin (Bos taurus, UniProt P00766), entry C#CCCCOC(=O)NC(Cc1ccc(NC(=N)N)cc1)P(=O)(Oc1ccc(Cl)cc1)Oc1ccc(Cl)cc1 (stereo not drawn) [36b] , equals 5.49

----------
Target: CatG (Homo sapiens)
Sequence (P08311 21-255): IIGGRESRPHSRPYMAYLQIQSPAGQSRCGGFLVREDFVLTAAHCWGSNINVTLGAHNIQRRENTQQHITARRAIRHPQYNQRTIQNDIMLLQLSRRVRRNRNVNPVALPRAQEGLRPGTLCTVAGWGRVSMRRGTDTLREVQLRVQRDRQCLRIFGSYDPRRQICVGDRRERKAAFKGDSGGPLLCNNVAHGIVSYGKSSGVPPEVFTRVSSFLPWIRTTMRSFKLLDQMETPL
Assay: Jump dilution, determination of inhibition type
Format: biochemical
Parameters: Cathepsin G (cathepsin G human neutrophil, Sigma-Aldrich); purchased Sigma-Aldrich
Settings: inhibitor at 10 times IC50, 15 min, diluted 10-fold or 100-fold; Rev./Irrev.
endpoint name: CatG jump dilution result

C#CCCCOC(=O)NC(c1ccc(NC(=N)N)cc1)P(=O)(Oc1ccccc1)Oc1ccccc1.O=C(O)C(F)(F)F (stereo not drawn) [37b]	Irrev.
CC(=O)Nc1ccc(OP(=O)(Oc2ccc(NC(C)=O)cc2)C(NC(=O)OCCCc2cn(CCOCCOCCOCCNC(=O)CCCCC[C@H]3NC(=O)N[C@H]3C)nn2)c2ccc(NC(=N)N)cc2)cc1 (stereo partly drawn) [56b]	Irrev.
C#CCCCOC(=O)NC(Cc1ccc(NC(=N)N)cc1)P(=O)(Oc1ccc(NC(C)=O)cc1)Oc1ccc(NC(C)=O)cc1 (stereo not drawn) [35b]	Rev.

----------
Biological target: uPA (recombinant urokinase plasminogen activator) (Homo sapiens, UniProt P00749)
Construct: purchased HYPHEN BioMed
Assay: IC50 determination, spectrophotometric protease assay
Type: biochemical
Conditions: read-out: uPA IC50; biotin probes; 15 min preincubation at 37 °C; mean ± SD
pIC50: −log10 of the molar value.
endpoint name: pIC50

Form: compound = O=C(CCCCC1SCC2NC(=O)NC21)NCCOCCOCCOCCn1cc(CCCOC(=O)NC(Cc2ccccc2)P(=O)(Oc2ccccc2)Oc2ccccc2)nn1 (stereo not shown) [compound 43] ; pIC50 = < 5.00

----------
Biological target: UniProt:P08311
Experiment: Jump dilution, determination of inhibition type
Assay type: biochemical
Parameters: Cathepsin G (cathepsin G human neutrophil, Sigma-Aldrich); purchased Sigma-Aldrich
Details: inhibitor at 10 times IC50, 15 min, diluted 10-fold or 100-fold; Rev./Irrev.
endpoint name: CatG jump dilution result

Below, 5 compounds whose answers are already recorded.
C#CCCCOC(=O)NC(c1ccc(NC(=N)N)cc1)P(=O)(Oc1ccc(NC(C)=O)cc1)Oc1ccc(NC(C)=O)cc1 (stereo not drawn) [38b]	Irrev.
C#CCCCOC(=O)NC(CCCNC(=N)N)P(=O)(Oc1ccc(Cl)cc1)Oc1ccc(Cl)cc1 (stereo not drawn) [33b]	Rev.
C[C@@H]1NC(=O)N[C@@H]1CCCCCC(=O)NCCOCCOCCOCCn1cc(CCCOC(=O)NC(Cc2ccc(NC(=N)N)cc2)P(=O)(Oc2ccc(Cl)cc2)Oc2ccc(Cl)cc2)nn1 (stereo partly drawn) [54b]	Rev.
C[C@@H]1NC(=O)N[C@@H]1CCCCCC(=O)NCCOCCOCCOCCn1cc(CCCOC(=O)NC(c2ccc(NC(=N)N)cc2)P(=O)(Oc2ccccc2)Oc2ccccc2)nn1 (stereo partly drawn) [55b]	Irrev.
C[C@@H]1NC(=O)N[C@@H]1CCCCCC(=O)NCCOCCOCCOCCn1cc(CCCOC(=O)NC(Cc2ccc(NC(=N)N)cc2)P(=O)(Oc2ccccc2)Oc2ccccc2)nn1 (stereo partly drawn) [50b]	Rev.

Continue with the compound presented below.
Measured CatG jump dilution result, C#CCCCOC(=O)NC(Cc1ccc(NC(=N)N)cc1)P(=O)(Oc1ccc(Cl)cc1)Oc1ccc(Cl)cc1 (stereo not drawn) [36b] : Rev.

----------
Target: Thrombin (Homo sapiens, UniProt P00734)
Construct: purchased R&D
Test: Kinetic progress curves (kapp, K1, KI*, mechanism)
Format: biochemical
Conditions: Thrombin KI*, apparent equilibrium constant of the overall process; mean ± SD
endpoint name: Ki

Example entries begin here.
C#CCCCOC(=O)NC(Cc1ccc(NC(=N)N)cc1)P(=O)(Oc1ccccc1)Oc1ccccc1 (centres unmarked) [34b]	4930 nM
C#CCCCOC(=O)NC(CCCNC(=N)N)P(=O)(Oc1ccccc1)Oc1ccccc1 (centres unmarked) [32b]	450 nM
C#CCCCOC(=O)NC(CCCNC(=N)N)P(=O)(Oc1ccc(Cl)cc1)Oc1ccc(Cl)cc1 (centres unmarked) [33b]	280 nM

Input C[C@@H]1NC(=O)N[C@@H]1CCCCCC(=O)NCCOCCOCCOCCn1cc(CCCOC(=O)NC(Cc2ccc(NC(=N)N)cc2)P(=O)(Oc2ccc(Cl)cc2)Oc2ccc(Cl)cc2)nn1 (some centres unmarked) [54b] . Output Ki: 60 nM

Entry CC(=O)Nc1ccc(OP(=O)(Oc2ccc(NC(C)=O)cc2)C(Cc2ccc(NC(=N)N)cc2)NC(=O)OCCCc2cn(CCOCCOCCOCCNC(=O)CCCCC[C@H]3NC(=O)N[C@H]3C)nn2)cc1 (some centres unmarked) [52b] ; Ki = 620 nM

Looking up C#CCCCOC(=O)NC(Cc1ccc(NC(=N)N)cc1)P(=O)(Oc1ccc(NC(C)=O)cc1)Oc1ccc(NC(C)=O)cc1 (centres unmarked) [35b] , I found its Ki recorded as 630 nM

Looking up C[C@@H]1NC(=O)N[C@@H]1CCCCCC(=O)NCCOCCOCCOCCn1cc(CCCOC(=O)NC(Cc2ccc(NC(=N)N)cc2)P(=O)(Oc2ccccc2)Oc2ccccc2)nn1 (some centres unmarked) [50b] , I see its Ki listed as 1550 nM

Record C#CCCCOC(=O)NC(Cc1ccc(NC(=N)N)cc1)P(=O)(Oc1ccc(Cl)cc1)Oc1ccc(Cl)cc1 (centres unmarked) [36b] , field Ki: 30 nM
